Each item that follows carries a reported TGI.
# Tested on: IGROV1 ovarian
# test: NCI tumour cell line growth inhibition, 48 h
property-name: TGI

- compound: "C[C@@H](CC(=O)OCc1ccccc1)OC1OC(COC(=O)C(C)(C)C)C(OC(=O)C(C)(C)C)C(OC(=O)C(C)(C)C)C1OC(=O)C(C)(C)C (stereo not given in full)"
  result: "> 100 µM"
- compound: "CCSCC1CC(O)(c2ccccc2)C(c2ccccc2)C(c2ccc(F)cc2)O1 (stereo not given)"
  result: "7.12 µM"
- compound: "CCC(c1ccccc1)c1noc(CCN(CC)CC)n1 (stereo not given)"
  result: "> 92.1 µM"
- compound: "O=S(=O)(/N=C(\\NO)Nc1ccc(Cl)cc1)c1cc(C(F)(F)F)cc(C(F)(F)F)c1"
  result: "31.6 µM"
- compound: "Cc1cc(Br)c(NC(=O)c2c(-c3c(Cl)cccc3Cl)noc2C)c(Br)c1"
  result: "> 100 µM"
- compound: "Cc1nc2sc3cccc(Cl)c3n2c(=O)c1N=Nc1ccc(Cl)cc1"
  result: "> 100 µM"
- compound: "Cn1c(=O)c2nc3sc4c(n3c2n(C)c1=O)C(=O)c1ccccc1C4=O"
  result: "> 69 µM"
- compound: "CCN(CC)c1ccc2nc3ccc(=[N+](CC)CC)cc-3oc2c1"
  result: "0.862 µM"
- compound: "O=C1c2ccccc2N2OC3(N4CCOCC4)CCCC3C12c1ccccc1 (stereo not given)"
  result: "> 100 µM"
- compound: "COc1ccc(/C=C2\\C(=O)N(NC(C)=O)c3ccccc32)cc1"
  result: "> 100 µM"
- compound: "CC(=O)NC1C(O[C@H]2C[C@H]3[C@@H]4CC=C5C[C@@H](O)CC[C@]5(C)[C@H]4CC[C@]3(C)[C@H]2[C@H](C)C(=O)CCC(C)C)OCC(O)C1O (stereo not given in full)"
  result: "> 42.5 µM"
- compound: "Fc1ccc(NC(c2ccc(F)cc2)C2CCN(CCCCc3ccccc3)CC2)cc1 (stereo not given)"
  result: "5.17 µM"
- compound: "CCN(/C=C1/C(=O)C(c2ccccc2)N(c2ccccc2)C1=O)CC (stereo not given)"
  result: "> 10 µM"
- compound: "COC1(OC)c2occc2C(=N)c2ccc(=O)oc21"
  result: "> 100 µM"
- compound: "O=c1cc(Nc2cccc(O)c2)[nH]c(=O)[nH]1"
  result: "> 100 µM"
- compound: "Cc1c(C)c(S(=O)(=O)N(CCCCN)OCCCN)c(C)c2c1OC(C)(C)CC2"
  result: "20.2 µM"
- compound: "S=C1Cc2c(-c3ccccc3)cc(-c3cccc(Cl)c3)nc2-c2ccccc2N1"
  result: "4.56 µM"
- compound: "O=C(c1ccc(Cl)cc1)N(C(=O)N1CCCCC1)c1ccccc1"
  result: "> 100 µM"
- compound: "Nc1nc(=S)c2ncn(C3OC(COP(=O)(O)O)C(O)C3O)c2[nH]1 (stereo not given)"
  result: "> 100 µM"
- compound: "CC(=O)Nc1ccc(C2CC(c3ccc([N+](=O)[O-])cc3)=Nc3ccccc3S2=O)cc1 (stereo not given)"
  result: "34.7 µM"
